Cited source: patent US12685735B2

// reported BRM Max % Inhibition per item
targetOrTestSystem: BRM (Homo sapiens, UniProt P51531)
Sequence (P51531 whole entry): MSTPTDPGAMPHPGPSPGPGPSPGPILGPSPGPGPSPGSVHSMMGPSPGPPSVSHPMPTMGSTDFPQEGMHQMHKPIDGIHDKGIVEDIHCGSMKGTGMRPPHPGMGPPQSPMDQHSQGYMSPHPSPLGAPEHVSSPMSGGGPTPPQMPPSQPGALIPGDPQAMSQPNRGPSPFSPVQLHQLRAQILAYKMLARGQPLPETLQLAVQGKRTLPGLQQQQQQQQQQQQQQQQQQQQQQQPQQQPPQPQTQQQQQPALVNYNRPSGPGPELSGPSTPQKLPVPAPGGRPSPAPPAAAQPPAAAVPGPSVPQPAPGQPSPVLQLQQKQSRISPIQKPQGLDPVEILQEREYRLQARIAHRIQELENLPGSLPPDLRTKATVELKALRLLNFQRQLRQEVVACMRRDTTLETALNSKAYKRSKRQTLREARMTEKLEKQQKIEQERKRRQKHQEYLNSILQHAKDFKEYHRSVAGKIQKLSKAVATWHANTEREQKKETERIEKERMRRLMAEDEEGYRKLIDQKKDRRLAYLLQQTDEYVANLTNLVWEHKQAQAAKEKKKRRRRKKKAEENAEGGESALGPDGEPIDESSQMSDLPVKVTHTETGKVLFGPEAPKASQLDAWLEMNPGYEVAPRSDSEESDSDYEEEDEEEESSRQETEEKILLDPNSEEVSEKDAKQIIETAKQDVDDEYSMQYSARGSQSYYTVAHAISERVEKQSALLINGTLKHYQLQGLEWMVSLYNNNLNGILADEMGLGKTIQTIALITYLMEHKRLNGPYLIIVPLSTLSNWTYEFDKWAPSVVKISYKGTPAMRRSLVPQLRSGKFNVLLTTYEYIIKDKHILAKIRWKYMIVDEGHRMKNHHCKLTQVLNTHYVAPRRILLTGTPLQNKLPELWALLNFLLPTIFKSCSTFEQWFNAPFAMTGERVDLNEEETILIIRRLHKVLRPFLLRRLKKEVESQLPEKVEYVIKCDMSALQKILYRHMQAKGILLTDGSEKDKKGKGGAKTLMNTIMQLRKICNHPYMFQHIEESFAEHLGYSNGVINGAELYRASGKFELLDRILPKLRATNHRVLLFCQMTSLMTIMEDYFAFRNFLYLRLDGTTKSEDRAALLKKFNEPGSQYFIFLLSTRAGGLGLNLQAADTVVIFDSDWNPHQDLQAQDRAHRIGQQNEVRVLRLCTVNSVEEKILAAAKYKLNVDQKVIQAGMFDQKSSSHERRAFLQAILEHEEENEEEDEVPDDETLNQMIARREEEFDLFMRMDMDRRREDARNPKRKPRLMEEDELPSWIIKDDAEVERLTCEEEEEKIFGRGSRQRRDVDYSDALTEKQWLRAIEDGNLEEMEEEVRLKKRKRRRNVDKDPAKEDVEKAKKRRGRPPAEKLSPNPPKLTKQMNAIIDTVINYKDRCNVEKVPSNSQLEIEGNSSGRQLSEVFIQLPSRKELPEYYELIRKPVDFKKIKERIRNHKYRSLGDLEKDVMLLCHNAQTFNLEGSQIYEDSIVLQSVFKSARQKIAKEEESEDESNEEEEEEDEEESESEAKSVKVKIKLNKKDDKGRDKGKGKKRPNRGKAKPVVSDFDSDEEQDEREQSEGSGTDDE
assayInfo: ATPase catalytic activity assay of BRM (ADP-Glo)
Type: biochemical
conditionInfo: 30 nM BRM, 400 μM ATP
endpointLabel: BRM Max % Inhibition

C[C@@H]1CN(c2cccc(-c3csc(NC(=O)CNC(=O)c4ccc5c(c4)C(C)(C#N)COC5)n3)n2)C[C@H](C)O1 (stereo in doubt) [Compound 421] :: >80%
COc1cccc(-c2csc(NC(=O)CNC(=O)c3ccc4c(c3)C(C)(C#N)CCN4)n2)c1 (stereo not drawn) :: >90%
CC1(C#N)CCOc2ccc(C(=O)NCC(=O)Nc3nc(-c4cccc(C5COC5)c4)cs3)cc21 (stereo in doubt) :: >95%
